B1: TPR 5TU (parent)
chain: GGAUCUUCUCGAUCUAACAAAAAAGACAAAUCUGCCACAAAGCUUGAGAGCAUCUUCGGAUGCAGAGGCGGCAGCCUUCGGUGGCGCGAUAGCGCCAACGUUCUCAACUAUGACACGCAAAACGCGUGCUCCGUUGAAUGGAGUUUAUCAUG

Variants of: B1
assay comment: polymerase ribozyme fitness, log enrichment relative to wild type (log ratio); higher = more active; in vitro selection for triplet polymerase activity
Variants at the floor of the assay were thinned out.
measured parameter: polymerase ribozyme fitness (log ratio)

{"var": "A21U A37C A49G A52U A91C", "endpoint result": "≤ -4.2"}

Give the measured polymerase ribozyme fitness (log ratio) of C36A U77G G81C G92U A115U G136C .
≤ -4.2

Then A37C A52C U53A G92A ?
≤ -4.2

Then A29U G46U G70U U90G C95U A115G G117U A120U ?
≤ -4.2

Then C72G C99G ?
≤ -4.2

Then C14U C72U C76U C96A G112U ?
≤ -4.2

Then C5U A66G C87U ?
≤ -4.2

Then U104G A113U U127A G141A ?
≤ -4.2

Then C51U A115U ?
-2.12

Then C14U C116G G128A C129G U135G ?
≤ -4.2

Then U82C G112U G152A ?
-3.59

Then C8U C27U A37C U55A C87G U111A C118G G124A ?
≤ -4.2

Source: the RNAGym collection of RNA variant scans (doi:10.1073/pnas.2313332121)
